# System: Trypanosoma brucei Lister 427 strain, bloodstream form
# assay_protocol: Assay for proliferation of kinetoplastid parasite Trypanosoma brucei (Cell Titer Glo, 48 hours)
# Type: cell-based
# experimental_context: Trypanosoma brucei, T. brucei Lister 427 bloodstream form; read-out: T. brucei EC50
# Protocol: Assay for Proliferation of Kinetoplastid Parasite Trypanosoma brucei. The proliferation is quantified by the addition of Cell Titer Glo (Promega®) a luminescent cell viability assay that measures the number of viable cells in culture based on the quantification of cellular ATP amount, which is an indicator of metabolically active cells. […] Trypanosoma brucei Lister 427 strain is grown in HMI-9 Trypanosome media for T. brucei bloodstream form. […] The plates are then read for luminescence. […]
The threshold is 600 nM. Values of EC50 beneath it are tagged T; values meeting or exceeding it are tagged F.

[[record]]
compound = "CC(C)(C)OC(=O)N1CCOC(C(=O)Nc2ccc(F)c(-c3cn4cc(C5CC5)cnc4n3)c2)C1 (centres unmarked)"
category_label = "F"

[[record]]
compound = "O=C(Nc1ccc(F)c(-c2cn3cc(NCCC(F)(F)F)cnc3n2)c1)N1CCCC1"
category_label = "T"

[[record]]
compound = "COCCN(C(=O)OC(C)C)c1cnc2nc(-c3cc(NC(=O)c4oc(C)nc4C)ccc3F)cn2c1"
category_label = "F"

[[record]]
compound = "CC(C)c1cnc2nc(-c3cc(NC(=O)N4CCC4)ccc3F)cn2c1"
category_label = "T"

[[record]]
compound = "Cc1nc(C)c(C(=O)Nc2ccc(F)c(-c3cn4cc(NC5=NCC(C)O5)cnc4n3)c2)o1 (centres unmarked)"
category_label = "F"

[[record]]
compound = "Cc1nc(C)c(C(=O)Nc2ccc(F)c(-c3cn4cc(C5=CCCN(C)C5)cnc4n3)c2)o1"
category_label = "T"

[[record]]
compound = "Cc1nc(C)c(C(=O)Nc2ccc(F)c(-c3cn4cc(-c5cccnc5)cnc4n3)c2)o1"
category_label = "T"


* * *

# Test system: L. donovani HU3 strain in mouse peritoneal macrophages
# assay_protocol: Assay for proliferation of Leishmania parasites in infected mouse peritoneal macrophages (SybrGreen staining, high-content imaging, 5 days)
# Format: cell-based, Leishmania donovani
# experimental_context: Leishmania donovani, Peritoneal macrophage, L. donovani in mouse peritoneal macrophages, inhibition of proliferation; read-out: L. donovani Macrophage EC50
pEC50: −log10 of the molar value.
Listed here: items and their measured pEC50.
experimental_endpoint: pEC50

[[record]]
molecule = "CC(C)OC(=O)Nc1ccc(-c2cnc3nc(-c4cc(NC(=O)N5CCCC5)ccc4F)cn3c2)cc1 [Compound 340]"
system = "L. donovani HU3 strain in mouse peritoneal macrophages"
experimental_endpoint = "pEC50"
reported_relation = "="
obs_value = 5.67

[[record]]
molecule = "Cc1nc(C(=O)Nc2ccc(Cl)c(-c3cn4cc(NC(=O)OC(C)C)cnc4n3)c2)c(C)o1 [Compound 46]"
system = "L. donovani HU3 strain in mouse peritoneal macrophages"
experimental_endpoint = "pEC50"
reported_relation = "="
obs_value = 5.30

[[record]]
molecule = "O=C(Nc1ccc(F)c(-c2cn3cc(Cl)cnc3n2)c1)N1CCC1 [Compound 237]"
system = "L. donovani HU3 strain in mouse peritoneal macrophages"
experimental_endpoint = "pEC50"
reported_relation = "="
obs_value = 6.06

[[record]]
molecule = "Cc1ncc(C(=O)Nc2ccc(F)c(-c3cn4cc(C5=CCOCC5)cnc4n3)c2)o1 [Compound 330]"
system = "L. donovani HU3 strain in mouse peritoneal macrophages"
experimental_endpoint = "pEC50"
reported_relation = "="
obs_value = 6.94

[[record]]
molecule = "Cc1ncc(C(=O)Nc2cccc(-c3cn4cc(NC(=O)OC(C)C)cnc4n3)c2)o1 [Compound 202]"
system = "L. donovani HU3 strain in mouse peritoneal macrophages"
experimental_endpoint = "pEC50"
reported_relation = "="
obs_value = 5.57

[[record]]
molecule = "CC(=O)N(C)C1CCN(C(=O)Nc2ccc(Cl)c(-c3cn4cc(NC(=O)OC(C)C)cnc4n3)c2)C1 (stereo not shown) [Compound 276]"
system = "L. donovani HU3 strain in mouse peritoneal macrophages"
experimental_endpoint = "pEC50"
reported_relation = "<"
obs_value = 4.30

[[record]]
molecule = "CC(C)OC(=O)Nc1cnc2nc(-c3cc(NC(=O)N4CC[C@H](F)C4)ccc3Cl)cn2c1 [Compound 264]"
system = "L. donovani HU3 strain in mouse peritoneal macrophages"
experimental_endpoint = "pEC50"
reported_relation = "<"
obs_value = 4.85

[[record]]
molecule = "Cc1nc(C)c(C(=O)Nc2ccc(F)c(-c3cn4cc(NC(=O)c5nc(N)cn5C)cnc4n3)c2)o1 [Compound 178]"
system = "L. donovani HU3 strain in mouse peritoneal macrophages"
experimental_endpoint = "pEC50"
reported_relation = "<"
obs_value = 4.37

[[record]]
molecule = "CC(C)OC(=O)NCc1cnc2nc(-c3cc(NC(=O)c4ccc(F)o4)ccc3F)cn2c1 [Compound 207]"
system = "L. donovani HU3 strain in mouse peritoneal macrophages"
experimental_endpoint = "pEC50"
reported_relation = "<"
obs_value = 4.39

[[record]]
molecule = "Cc1ccc(C(=O)Nc2ccc(Cl)c(-c3cn4cc(-c5ccsc5)cnc4n3)c2)o1 [Compound 30]"
system = "L. donovani HU3 strain in mouse peritoneal macrophages"
experimental_endpoint = "pEC50"
reported_relation = "="
obs_value = 6.76

[[record]]
molecule = "CC1(C(=O)Nc2cnc3nc(-c4cc(NC(=O)N5CCCC5)ccc4F)cn3c2)CCC1 [Compound 145]"
system = "L. donovani HU3 strain in mouse peritoneal macrophages"
experimental_endpoint = "pEC50"
reported_relation = "="
obs_value = 6.33

[[record]]
molecule = "Cc1nc(C(=O)Nc2ccc(Cl)c(-c3cn4cc(NC(=O)OC(C)C)cnc4n3)c2)c[nH]1 [Compound 59]"
system = "L. donovani HU3 strain in mouse peritoneal macrophages"
experimental_endpoint = "pEC50"
reported_relation = "<"
obs_value = 4.30

[[record]]
molecule = "COCCOC(=O)Nc1ccc(Cl)c(-c2cn3cc(-c4ccccc4)cnc3n2)c1 [Compound 35]"
system = "L. donovani HU3 strain in mouse peritoneal macrophages"
experimental_endpoint = "pEC50"
reported_relation = "="
obs_value = 6.06

[[record]]
molecule = "COC(C)C(=O)Nc1cnc2nc(-c3cc(NC(=O)c4oc(C)nc4C)ccc3F)cn2c1 (stereo not shown) [Compound 177]"
system = "L. donovani HU3 strain in mouse peritoneal macrophages"
experimental_endpoint = "pEC50"
reported_relation = "="
obs_value = 6.04

[[record]]
molecule = "O=C1CCC(C(=O)Nc2cnc3nc(-c4cc(NC(=O)N5CCCC5)ccc4F)cn3c2)N1 (stereo not shown) [Compound 125]"
system = "L. donovani HU3 strain in mouse peritoneal macrophages"
experimental_endpoint = "pEC50"
reported_relation = "<"
obs_value = 4.30

[[record]]
molecule = "CC(C)OC(=O)Nc1cnc2nc(-c3cc(NC(=O)c4cnc(Cl)s4)ccc3Cl)cn2c1 [Compound 51]"
system = "L. donovani HU3 strain in mouse peritoneal macrophages"
experimental_endpoint = "pEC50"
reported_relation = "="
obs_value = 5.03

[[record]]
molecule = "O=C(Nc1ccc(F)c(-c2cn3cc(-c4ccccc4)cnc3n2)c1)N1CC(F)(F)C1 [Compound 319]"
system = "L. donovani HU3 strain in mouse peritoneal macrophages"
experimental_endpoint = "pEC50"
reported_relation = "="
obs_value = 6.99

[[record]]
molecule = "CC(C)OC(=O)Nc1cnc2nc(-c3cc(NC(=O)c4cocn4)ccc3F)cn2c1 [Compound 65]"
system = "L. donovani HU3 strain in mouse peritoneal macrophages"
experimental_endpoint = "pEC50"
reported_relation = "="
obs_value = 5.04

[[record]]
molecule = "Cc1nc(C)c(C(=O)Nc2ccc(F)c(-c3cn4cc(NC(=O)CC5CCCCO5)cnc4n3)c2)o1 (stereo not shown) [Compound 155]"
system = "L. donovani HU3 strain in mouse peritoneal macrophages"
experimental_endpoint = "pEC50"
reported_relation = "="
obs_value = 5.43

[[record]]
molecule = "Cc1nc(C)c(C(=O)Nc2ccc(F)c(-c3cn4cc(NC(=O)c5ccc(OCCN6CCN(C)CC6)cc5)cnc4n3)c2)o1 [Compound 175]"
system = "L. donovani HU3 strain in mouse peritoneal macrophages"
experimental_endpoint = "pEC50"
reported_relation = "="
obs_value = 4.90

[[record]]
molecule = "Cc1nc(C)c(C(=O)Nc2ccc(F)c(-c3cn4cc(-c5ccn[nH]5)cnc4n3)c2)o1 [Compound 369]"
system = "L. donovani HU3 strain in mouse peritoneal macrophages"
experimental_endpoint = "pEC50"
reported_relation = "="
obs_value = 6.53

[[record]]
molecule = "CCC(O)(C(=O)Nc1cnc2nc(-c3cc(NC(=O)N4CCCC4)ccc3F)cn2c1)C(F)(F)F (stereo not shown) [Compound 128]"
system = "L. donovani HU3 strain in mouse peritoneal macrophages"
experimental_endpoint = "pEC50"
reported_relation = "<"
obs_value = 4.30

[[record]]
molecule = "CC(C)OC(=O)Nc1cnc2nc(-c3cc(NC(=O)[C@H](N)c4ccccc4)ccc3F)cn2c1 [Compound 85]"
system = "L. donovani HU3 strain in mouse peritoneal macrophages"
experimental_endpoint = "pEC50"
reported_relation = "="
obs_value = 4.82

[[record]]
molecule = "CC(C)OC(=O)Nc1cnc2nc(-c3cc(NC(=O)c4nccn4C)ccc3F)cn2c1 [Compound 97]"
system = "L. donovani HU3 strain in mouse peritoneal macrophages"
experimental_endpoint = "pEC50"
reported_relation = "="
obs_value = 4.74

[[record]]
molecule = "Cc1nc(C(=O)Nc2cnc3nc(-c4cc(NC(=O)c5oc(C)nc5C)ccc4F)cn3c2)no1 [Compound 183]"
system = "L. donovani HU3 strain in mouse peritoneal macrophages"
experimental_endpoint = "pEC50"
reported_relation = "="
obs_value = 4.94

[[record]]
molecule = "CCn1ccnc1C(=O)Nc1cnc2nc(-c3cc(NC(=O)c4oc(C)nc4C)ccc3F)cn2c1 [Compound 117]"
system = "L. donovani HU3 strain in mouse peritoneal macrophages"
experimental_endpoint = "pEC50"
reported_relation = "<"
obs_value = 4.30

[[record]]
molecule = "CC(=O)Nc1cnc2nc(-c3cc(NC(=O)c4cnc(C)o4)ccc3F)cn2c1 [Compound 206]"
system = "L. donovani HU3 strain in mouse peritoneal macrophages"
experimental_endpoint = "pEC50"
reported_relation = "<"
obs_value = 4.30

[[record]]
molecule = "CC(C)OC(=O)Nc1cnc2nc(-c3cc(NC(=O)C4CCCCO4)ccc3Cl)cn2c1 (stereo not shown) [Compound 57]"
system = "L. donovani HU3 strain in mouse peritoneal macrophages"
experimental_endpoint = "pEC50"
reported_relation = "="
obs_value = 5.53

[[record]]
molecule = "CC(C)OC(=O)Nc1cnc2nc(-c3cc(NC(=O)N4CCCC4)ccc3Cl)c(F)n2c1 [Compound 15]"
system = "L. donovani HU3 strain in mouse peritoneal macrophages"
experimental_endpoint = "pEC50"
reported_relation = "="
obs_value = 5.53

[[record]]
molecule = "COC1CCC(C(=O)Nc2cnc3nc(-c4cc(NC(=O)c5oc(C)nc5C)ccc4F)cn3c2)CC1 (stereo not shown) [Compound 169]"
system = "L. donovani HU3 strain in mouse peritoneal macrophages"
experimental_endpoint = "pEC50"
reported_relation = "="
obs_value = 5.62

[[record]]
molecule = "CC1(C(=O)Nc2cnc3nc(-c4cc(NC(=O)N5CCCC5)ccc4F)cn3c2)CCCO1 (stereo not shown) [Compound 127]"
system = "L. donovani HU3 strain in mouse peritoneal macrophages"
experimental_endpoint = "pEC50"
reported_relation = "="
obs_value = 5.67

